ASSAY EXPLANATION: Cytotoxicity against human MIHA cells assessed as cell viability at 50 uM incubated for 48 hrs by MTT assay
Format: toxicity, cell-based
MEASUREMENT KIND: Activity

CN1C[C@H](c2ccccc2)[C@H](C(=O)/C=C/c2ccccc2)[C@]12C(=O)Nc1ccccc12 = Toxic
CN1C[C@H](c2ccccc2)[C@]2(CN(C(=O)OC(C)(C)C)C/C(=C\c3ccccc3)C2=O)[C@]12C(=O)Nc1ccc(Cl)cc12 = Non-Toxic
CN1C[C@H](c2ccccc2)[C@]2(CCC/C(=C\c3ccccc3)C2=O)[C@]12C(=O)Nc1ccc(F)cc12 = Non-Toxic
CN1C[C@H](c2ccccc2)[C@H](C(=O)/C=C/c2ccccc2)[C@]12C(=O)Nc1ccc(Cl)cc12 = Toxic

Q: Looking for the measured Activity of CN1C[C@H](c2ccccc2)C2(CN(C(=O)OC(C)(C)C)C/C(=C\c3ccccc3)C2=O)[C@]12C(=O)c1cccc3cccc2c13 (single isomer, unassigned) , can you help?
Ans: Non-Toxic

Data origin: ChEMBL document CHEMBL5584293
